# Tested System: Tyrosine-protein phosphatase non-receptor type 1 (Homo sapiens, UniProt P18031)
# Sequence (P18031 whole entry): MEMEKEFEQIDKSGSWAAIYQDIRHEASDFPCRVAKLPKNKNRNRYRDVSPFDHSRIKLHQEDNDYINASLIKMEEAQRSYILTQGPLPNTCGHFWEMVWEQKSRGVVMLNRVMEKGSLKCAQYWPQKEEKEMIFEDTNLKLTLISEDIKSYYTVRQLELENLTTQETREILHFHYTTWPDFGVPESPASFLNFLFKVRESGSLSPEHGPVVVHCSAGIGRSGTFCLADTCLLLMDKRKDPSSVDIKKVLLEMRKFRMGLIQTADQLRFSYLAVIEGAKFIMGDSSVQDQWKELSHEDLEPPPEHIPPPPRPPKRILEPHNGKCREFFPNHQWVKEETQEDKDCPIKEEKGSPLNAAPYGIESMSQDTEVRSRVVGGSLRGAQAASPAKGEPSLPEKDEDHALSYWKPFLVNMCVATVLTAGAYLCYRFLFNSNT
# Measurement Protocol: Inhibitory activity against Protein tyrosine phosphatase 1B (PTP1B) over-expressed in intact Sf9 cell assay
Metric Name: IC50 (nM)

Some compounds with known IC50 results, for comparison:
• O=P(O)(O)C(F)(F)c1ccc(CC(Cc2ccc(OCc3ccccc3)cc2)(c2ccccc2)n2nnc3ccccc32)cc1 (centres undefined) = 4070
• O=C(OCc1ccccc1)C(Cc1ccc(C(F)(F)P(=O)(O)O)cc1)(c1ccccc1)n1nnc2ccccc21 (centres undefined) = 1700

1. O=P(O)(O)C(F)(F)c1ccc(CC(Cc2ccc(C(F)(F)P(=O)(O)O)cc2)(c2ccc3ccccc3n2)n2nnc3ccccc32)cc1
2. O=P(O)(O)C(F)(F)c1ccc(CC(Cc2ccc(C(F)(F)P(=O)(O)O)c(Br)c2)(c2ccccc2)n2nnc3ccccc32)cc1 (centres undefined)
Query block: Of 1 and 2 , whose reported IC50 is numerically smaller? Choose, then provide that item's label.
Result block: 1

---

# Tested System: Tyrosine-protein phosphatase non-receptor type 2 (Homo sapiens)
# Sequence (P17706 whole entry): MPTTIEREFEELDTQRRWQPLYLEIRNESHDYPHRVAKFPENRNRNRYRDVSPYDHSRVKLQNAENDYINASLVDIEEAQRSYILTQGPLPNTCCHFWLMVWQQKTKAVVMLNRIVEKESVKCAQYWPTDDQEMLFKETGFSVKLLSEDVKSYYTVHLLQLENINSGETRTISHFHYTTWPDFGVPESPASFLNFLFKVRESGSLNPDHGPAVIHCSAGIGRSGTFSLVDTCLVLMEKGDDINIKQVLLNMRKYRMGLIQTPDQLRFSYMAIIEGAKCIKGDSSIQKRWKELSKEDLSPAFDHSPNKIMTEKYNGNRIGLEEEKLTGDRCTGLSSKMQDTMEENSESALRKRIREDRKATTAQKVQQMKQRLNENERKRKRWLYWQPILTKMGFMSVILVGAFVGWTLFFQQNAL
# Measurement Protocol: Inhibitory activity against T cell protein tyrosine phosphatase
Metric Name: IC50 (nM)

Examples with their reported IC50 follow.
• O=P(O)(O)C(F)(F)c1ccc(CC(Cc2ccc(C(F)(F)P(=O)(O)O)cc2)(c2nc3ccccc3s2)n2nnc3ccccc32)cc1 = 20
• COC(CC(C)C)c1ccc2cc(-c3ccc(CC(Cc4ccc(C(F)(F)P(=O)(O)O)cc4)(c4ccccc4)n4nnc5ccccc54)cc3)cc(P(=O)(O)O)c2n1 (stereo in doubt; 21d) = 930
• COC(CC(C)C)c1ccc2cc(-c3ccc(CC(Cc4ccc(C(F)(F)P(=O)(O)O)cc4)(c4ccccc4)n4nnc5ccccc54)cc3)cc(P(=O)(O)O)c2n1 (stereo in doubt; 21c) = 1130

I. O=P(O)(O)C(F)(F)c1ccc(CC(Cc2ccc(C(F)(F)P(=O)(O)O)cc2)(c2ccc3ccccc3n2)n2nnc3ccccc32)cc1
II. O=P(O)(O)C(F)(F)c1ccc(CC(C/C=C/c2ccccc2)(c2ccccc2)n2nnc3ccccc32)cc1 (stereo unspecified)
III. O=P(O)(O)C(F)(F)c1ccc(CC(Cc2ccc(C(F)(F)P(=O)(O)O)cc2)(c2nnn[nH]2)n2nnc3ccccc32)cc1
Query block: I would appreciate it if you could sort these 3 compounds by IC50, starting from the smallest number. Answer with the labels in sequence, matching the requested order.
Result block: III, I, II
